% Inhibition of OCT2-dependent MPP+ uptake at 20 µM (mean ± SEM) for assorted compounds
- measured target: OCT2 (Homo sapiens)
- Sequence (O15244 whole entry): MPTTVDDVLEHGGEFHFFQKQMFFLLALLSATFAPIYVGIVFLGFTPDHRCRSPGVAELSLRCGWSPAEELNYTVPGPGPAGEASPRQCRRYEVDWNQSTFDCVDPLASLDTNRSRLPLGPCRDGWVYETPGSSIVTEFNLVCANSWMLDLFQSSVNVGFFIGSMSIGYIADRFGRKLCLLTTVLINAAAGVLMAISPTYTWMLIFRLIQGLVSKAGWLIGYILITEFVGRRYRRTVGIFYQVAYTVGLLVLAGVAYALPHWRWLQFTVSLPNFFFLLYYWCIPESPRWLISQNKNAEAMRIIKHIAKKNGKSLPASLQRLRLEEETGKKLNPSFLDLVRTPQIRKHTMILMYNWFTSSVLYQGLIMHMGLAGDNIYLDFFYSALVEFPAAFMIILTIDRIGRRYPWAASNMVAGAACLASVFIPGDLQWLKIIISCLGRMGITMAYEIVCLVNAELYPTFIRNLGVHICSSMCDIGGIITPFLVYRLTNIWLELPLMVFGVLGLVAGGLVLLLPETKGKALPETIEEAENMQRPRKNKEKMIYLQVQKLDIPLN
- assay notes: Inhibition of OCT2-mediated [3H]MPP+ uptake in HEK-OCT2 cells
- applied conditions: test drug 20 µM; MPP+ 50 μM; 3 min; net uptake HEK-OCT2 minus HEK-VC
value type: % Inhibition of OCT2-dependent MPP+ uptake at 20 µM (mean ± SEM) (%)

* C[C@H]1c2cccc(O)c2C(=O)C2=C(O)[C@]3(O)C(=O)C(C(N)=O)=C(O)[C@@H](N(C)C)[C@@H]3[C@@H](O)[C@@H]21 | -12.9
* CN1CCN(C2=Nc3cc(Cl)ccc3Nc3ccccc32)CC1 | 43.4
* O=C(CCCN1CCC(O)(c2ccc(Cl)cc2)CC1)c1ccc(F)cc1 | -11.2
* O=C(NCCN1CCOCC1)c1ccc(Cl)cc1 [Moclobemide] | -38.7
* CC(CN(C)C)CN1c2ccccc2CCc2ccccc21 (centres unmarked) | 51.0
